Below, each entry is listed with its recorded GI50.
System: NCI-H460
Assay Protocol: NCI tumour cell line growth inhibition, 48 h
Active and inactive are the calls of the source. Rule as the data show it: active = GI50 up to about 1.1 µM and inactive = higher.

Compound	Reading
CC1C(=O)CCC1C(Sc1ccccc1)(Sc1ccccc1)Sc1ccccc1 (stereo not drawn)	41.4 µM (inactive)

// recorded GI50 for NCc1ccc(O)c(O)c1O : 18.5 µM (inactive)

// recorded GI50 for Cc1ccc(S(=O)(=O)Oc2cc(S(=O)(=O)O)cc3cc(S(=O)(=O)O)cc(N)c23)cc1 : > 100 µM (inactive)

###

Below, each entry is listed with its recorded GI50.
Tested on: OVCAR-5
Assay Protocol: NCI tumour cell line growth inhibition, 48 h
Active and inactive are the calls of the source. Rule as the data show it: active = GI50 up to about 1.1 µM and inactive = higher.

Before answering, review these 5 worked examples.
Compound	GI50
CC1(C)O[C@@H]([C@H](O)CO)[C@H](O)[C@@H](C2SCCCS2)O1	> 100 µM (inactive)
COc1cc(Br)c(CC2C3=C(CCN2C(=O)C2CCC2)CC(=O)CC3)cc1O (stereo not drawn)	> 100 µM (inactive)
Nc1c(Cl)ncnc1NCCCCCCCCCCCCNc1ncnc(Cl)c1N	< 0.01 µM (active)
Cc1ccc(/N=C2\C(=N/c3ccc(C)cc3)N(c3ccc(C)cc3)C(=S)N2C(=O)c2ccccc2)cc1	> 100 µM (inactive)
FC(F)(F)c1ccc2c(c1)nc(-c1ccc(Cl)cc1)n2CC1CCCN2CCCCC12 (stereo not drawn)	6.41 µM (inactive)

// recorded GI50 for CC(C)CNCCc1ccccn1 : > 100 µM (inactive)

// recorded GI50 for NC1(C(=O)O)CCCC1 : > 625 µM (inactive)

// recorded GI50 for CCC(C)CCOC(=O)c1ccc(/N=C\c2ccc(/C=N/c3ccc(C(=O)OCCC(C)CC)cc3)cc2)cc1 (stereo not drawn) : > 100 µM (inactive)

// recorded GI50 for Cc1cc2c(-c3ccccc3)cc(=O)[nH]c2cc1N : > 100 µM (inactive)

// recorded GI50 for CCOC(=O)c1c(N2CCCC2)[nH]c(=O)c(C(c2ccco2)c2c(O)c(C(=O)OCC)c(N3CCCC3)[nH]c2=O)c1O : 67.9 µM (inactive)

###

System: RPMI-8226
Assay Protocol: NCI tumour cell line growth inhibition, 48 h
The source made the active and inactive calls. Cut-off read from the data, not from the text of the source: active = GI50 up to about 1.1 µM and inactive = higher.
Hi! Could you answer with just one of these? active, inactive

# count of solved cases: 8
Compound	Classification
O=c1[nH]c2c(c3ccccc13)CCc1ccccc1-2	inactive
CC(=O)/C=C/c1ccc(C2CC(C)=Nc3c(ccc4c3C(=O)c3ccccc3C4=O)N2)cc1 (centres undefined)	inactive
Nc1ncnc2c1ncn2[C@@H]1O[C@H](COP(=O)(O)OP(=O)(O)OC[C@H]2O[C@@H](OCCCO)[C@H](O)[C@@H]2O)[C@@H](O)[C@H]1O	inactive
CC1(C)CCCCCCCCCC(C)(CCCO)C1=O (centres undefined)	inactive
Nc1c(C(=O)c2ccc(Cl)c(Cl)c2)[nH]c(NCc2ccccc2)c1C(=S)Nc1ccccc1	inactive
Cc1ccccc1OC(C)C(=O)NN1C(=O)CSC1c1ccccc1 (centres undefined)	inactive
COC(=O)c1c(OC(C)=O)ccc2c1c1c(OC(C)=O)c3ccccc3c(OC(C)=O)c1n2Cc1ccccc1	inactive
CN(C)c1ccc(/C=N/c2ccc(-c3nc4ccccc4s3)cc2)cc1	inactive

INPUT: Short answer needed: outcome of this test for Cc1ccc(/N=C2\C(=N/c3ccc(C)cc3)N(c3ccc(C)cc3)C(=S)N2C(=O)c2ccccc2)cc1 ?
OUTPUT: inactive

INPUT: Short answer needed: outcome of this test for Cc1cccc(C)c1N1C(=O)C2c3[nH]c4ccccc4c3C3CCC(C(C)(C)C)CC3C2C1=O (centres undefined) ?
OUTPUT: inactive

###

Tested on: HOP-62
Assay Protocol: NCI tumour cell line growth inhibition, 48 h
Calls of active or inactive are those of the source. No stated cut-off is given here; in the data, active = GI50 up to about 1.1 µM and inactive = higher.
Hi! Could you answer with just one of these? 1 = active, 0 = inactive

# count of solved cases: 3
Compound	Classification
Cc1cc(O)nc(NNC(C#N)c2ccc([N+](=O)[O-])cc2)n1 (stereo not given)	0
CC(C)Oc1c(-c2ccc(F)cc2)c(O)c2c3c1oc(=O)n3C=CC2C (stereo not given)	0
CC(=O)OCC12C(OC(C)=O)C(=O)C3C(OC(C)=O)C14OC3(C)COC(=O)c1cccnc1C(C)C(C)C(=O)OC(C(OC(C)=O)C2OC(C)=O)C4(C)O (stereo not given)	0

INPUT: Short answer needed: outcome of this test for Cc1ccc(C2NC(=O)c3ccccc3N2)c(C)c1 (stereo not given) ?
OUTPUT: 0

INPUT: Short answer needed: outcome of this test for CC(N/N=C(\S)N1CCCC1)c1cccnn1 (stereo not given) ?
OUTPUT: 1

INPUT: Short answer needed: outcome of this test for COc1ccc2oc(=N)c(C(=O)NCc3ccccc3)cc2c1 ?
OUTPUT: 0

INPUT: Short answer needed: outcome of this test for Nc1ncnc2c1ncn2[C@@H]1O[C@H](COP(=O)(O)OP(=O)(O)OC[C@H]2O[C@@H](OCCCO)[C@H](O)[C@@H]2O)[C@@H](O)[C@H]1O ?
OUTPUT: 0

INPUT: Short answer needed: outcome of this test for Cc1cc2nc3c(C#N)c(-c4ccccc4)cc(Nc4ccc(Cl)cc4)n3c2cc1C ?
OUTPUT: 0

INPUT: Short answer needed: outcome of this test for COc1nc2ccc(CNc3ccc(C(=O)NC(CCC(=O)O)C(=O)O)cc3)cc2nc1OC (stereo not given) ?
OUTPUT: 0

INPUT: Short answer needed: outcome of this test for N#CC(C(=N/O)/C(=N/O)C(C#N)c1ccc(Cl)cc1)c1ccc(Cl)cc1 (stereo not given) ?
OUTPUT: 0

INPUT: Short answer needed: outcome of this test for [O-][n+]1c2cc(CN3CCOCC3)c(CN3CCOCC3)cc2[n+]([O-])c2c(O)cccc21 ?
OUTPUT: 0

INPUT: Short answer needed: outcome of this test for CCCNc1[nH]c(C(=O)c2ccccc2)c(N)c1C(=S)Nc1ccccc1 ?
OUTPUT: 0

###

Test system: OVCAR-5
Assay Protocol: NCI tumour cell line growth inhibition, 48 h
Active and inactive are the calls of the source. No stated cut-off is given here; in the data, active = GI50 up to about 1.1 µM and inactive = higher.
Hi! Could you answer with just one of these? active, inactive

# count of solved cases: 5
Molecule	Measured Target	Classification
O=[N+]([O-])C(=C(c1ccccc1)c1ccccc1)[N+](=O)[O-]	OVCAR-5	inactive
CN(C)c1[se]nc2c1c(=O)n(C)c(=O)n2C	OVCAR-5	inactive
CCC(O)CC1OC2(CCC1C)CC1OC(=O)/C=C\C(C)(O)C(O)C(C)C(O)C(OC3CC(OC)C(O)C(C)O3)C(O)C(C)(O)CCC/C=C/C3CC(C)COC3(O)CC(O2)C1C (stereo unspecified)	OVCAR-5	inactive
CC(=O)NCCC1CN(C(=O)/C=C\I)c2ccccc21 (stereo unspecified)	OVCAR-5	inactive
Cc1ccc(C)c(COCCOCn2ccc(N)nc2=O)c1	OVCAR-5	inactive

INPUT: Short answer needed: outcome of this test for C=CCOCn1cnc2c(N)ncnc21 ?
OUTPUT: inactive

###

Test system: HCT-15
Reported Property: GI50

Before answering, review these 2 worked examples.
Compound	GI50
CC(=O)OCC1OC(n2c(-c3ccc(C)cc3)cc(-c3ccco3)c(C#N)c2=S)C(OC(C)=O)C(OC(C)=O)C1OC(C)=O (stereo not drawn)	> 100 µM
O=C1C(C(c2ccc([N+](=O)[O-])cc2)N2CCOCC2)=C(O)C(c2ccccc2)N1c1ccccc1 (stereo not drawn)	> 10 µM

Proceed to the following item.
HCT-15 assay, compound COC[C@@H](/N=C/N1CCc2cc(OC)c(OC)cc2[C@@H]1C)C(C)(C)C , recorded GI50 = > 100 µM

###

Tested on: EKVX
Assay Protocol: NCI tumour cell line growth inhibition, 48 h
Active and inactive are the calls of the source. No stated cut-off is given here; in the data, active = GI50 up to about 1.1 µM and inactive = higher.
Reported Property: GI50

// recorded GI50 for COc1cc(O)c2c(c1)C(=O)C=C(Cl)C2=O : > 100 µM (inactive)

// recorded GI50 for CN(C)c1ccc(/C=N/c2ccc(-c3nc4ccccc4s3)cc2)cc1 : 24.6 µM (inactive)

// recorded GI50 for CCCN(CCC)c1c([N+](=O)[O-])cc(C(N)=O)cc1[N+](=O)[O-] : 36.3 µM (inactive)

###

Tested on: DMS-273
Assay Protocol: NCI tumour cell line growth inhibition, 48 h
Activity calls are given as the source filed them. No stated cut-off is given here; in the data, active = GI50 up to about 1.1 µM and inactive = higher.
Hi! Could you answer with just one of these? active, inactive

# count of solved cases: 8
Compound	Classification
O=c1c2cc(Br)cc(Br)c2[nH]c(=S)n1-c1ccccc1	inactive
COc1ccc(C(=O)C(C(=O)CCC(=O)Nc2ccc(Cl)c(Cl)c2)c2ccc(OC)cc2)cc1 (centres undefined)	inactive
Cc1cc(O)nc(NNC(C#N)c2ccc([N+](=O)[O-])cc2)n1 (centres undefined)	inactive
CN/N=C(\C)CC(=O)Nc1cccc(Cl)c1C	inactive
COc1ccc2c(CCNC(C)=O)c(C(C)=O)[nH]c2c1	inactive
O=C(/C=C/c1cccc([N+](=O)[O-])c1)c1cccnc1	inactive
CC1C(=O)CCC1C(Sc1ccccc1)(Sc1ccccc1)Sc1ccccc1 (centres undefined)	inactive
CCOC(=O)CCn1cnc(N)n1	inactive

INPUT: Short answer needed: outcome of this test for C/C(=N\N=C(/S)N1CC2CCC(CC2)C1)c1cccc[n+]1[O-] ?
OUTPUT: inactive

INPUT: Short answer needed: outcome of this test for O=C1OC2(OC2c2ccc(Cl)cc2)c2ccccc21 (centres undefined) ?
OUTPUT: inactive

INPUT: Short answer needed: outcome of this test for O=C(/C=C/c1ccc(OCCCOc2ccc(/C=C/C(=O)c3ccccc3)cc2)cc1)c1ccccc1 ?
OUTPUT: inactive

Source listed as ChEMBL document CHEMBL1201862.
